Measured values drawn from PubChem BioAssay AID652105 for this set.

# system: Phosphatidylinositol 5-phosphate 4-kinase type-2 alpha (Homo sapiens) (UniProt P48426)
# Sequence (P48426 whole entry, looked up): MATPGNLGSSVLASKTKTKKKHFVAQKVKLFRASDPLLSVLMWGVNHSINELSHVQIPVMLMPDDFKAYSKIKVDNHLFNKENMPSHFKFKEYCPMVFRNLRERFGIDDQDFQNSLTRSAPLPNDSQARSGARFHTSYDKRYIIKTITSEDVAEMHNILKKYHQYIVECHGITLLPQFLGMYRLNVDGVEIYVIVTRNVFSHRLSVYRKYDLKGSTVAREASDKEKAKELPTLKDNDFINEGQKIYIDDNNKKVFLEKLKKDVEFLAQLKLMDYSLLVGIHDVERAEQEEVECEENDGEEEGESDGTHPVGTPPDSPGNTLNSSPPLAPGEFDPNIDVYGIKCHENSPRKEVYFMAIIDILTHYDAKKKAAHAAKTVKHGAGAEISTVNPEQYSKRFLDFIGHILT
# assayExplanation: qHTS for Inhibitors of phosphatidylinositol 5-phosphate 4-kinase (PI5P4K); note: value at the top dose of about 77 µM; % is set by controls: 0 for no effect and ±100 for the full control effect
# conditionNotes: PI5P4Kalpha enzyme, ADP-Glo luminescence, 60 min; stronger effect = lower value
In all, about 330,000 compounds went through this assay and about 4,100 (1.2%) were called active. About 2% were inconclusive and are not listed. Only a selection was taken, and actives are over-represented in it overall.
observable: max response (%)
The reply should contain only the number, in %.

>>> print(df.to_string())
                                   molecule  unitannotation  reading
0  COc1cc(/C=N/NC(=O)c2ccc(N3CCCC3=O)cc2)ccc1O               %    0.256
1  CCOC(=O)c1sc(=S)n2c1[nH]c(=O)c1ccc(C(=O)OC)cc12               %    -52.6
2  CC(=O)c1ccc(S(=O)(=O)N2CCC(Oc3ccc(-n4cnnn4)cc3)CC2)cc1               %    -1.39
3  Cc1ccc(NC2(C#N)C(=O)Nc3ccccc32)cc1 (stereo not given)               %    -2.41
4  N#CC1=C(N)Oc2[nH]c(=S)[nH]c(=O)c2C12C(=O)Nc1ccccc12 (stereo not given)               %    -89.2

Entry CC(=O)c1ccc(S(=O)(=O)N2CCN(C(=O)/C=C/c3ccc4ccccc4n3)CC2)cc1 , system Phosphatidylinositol 5-phosphate 4-kinase type-2 alpha (Homo sapiens) (UniProt P48426): what max response was measured? -58.5

Entry CC1(C)Cc2ccccc2-c2[nH]c(=S)[nH]c(=O)c21 , system Phosphatidylinositol 5-phosphate 4-kinase type-2 alpha (Homo sapiens) (UniProt P48426): what max response was measured? -19.7

Entry COc1ccc(C(=O)Nc2ccccc2C(=O)N/N=C/c2ccc(O)c(OC)c2)cc1 , system Phosphatidylinositol 5-phosphate 4-kinase type-2 alpha (Homo sapiens) (UniProt P48426): what max response was measured? -50.7

Entry CCOc1cc(/C=N/NC(=O)c2cc(-c3ccccc3)nc3ccccc23)ccc1O , system Phosphatidylinositol 5-phosphate 4-kinase type-2 alpha (Homo sapiens) (UniProt P48426): what max response was measured? 1.21

Entry CC(=O)c1ccc(S(=O)(=O)N2CCC3(CC2)OCCO3)cc1 , system Phosphatidylinositol 5-phosphate 4-kinase type-2 alpha (Homo sapiens) (UniProt P48426): what max response was measured? 1.8
